Recorded values, source patent US20230176070A1.

tested target: GST fusion PDZ mutant protein (R46E:K48D) (mammalian (so in the source)) (UniProt P57105)
assay protocol: indirect ELISA, PDZ R46E:K48D coated
metric: Mutant ELISA affinity (LogIC50 (oD450nm))

- P6 (VHH) VHH: HVQLVESGGGLVQAGGSLRLSCAASGRTFSRYTMGWFHQAPGKEREFVAEISGTGGNTGYADSVKGRFTMSRDNAKNTVYLQMNSLKPEDTGVYYCAAVIGSPTDSSDYRSSLDYDYWGQGTQVTVSE: 4.73

[a] P15 (VHH) VHH: QVQLVESGGGLVQAGGSLRLSCVASGRPFSSLDMGWFRQRPGKERDVVATINWTGDSTYYLDSVKGRFTISRDNAKNTVFLQMNSLKPEDTAVYYCAARGGGSSVDSEYDVGEFEYDYWGQGTQVTVSS
[b] P4 (VHH) VHH: HVQLVESGGGLVQAGGSLRLSCAAAGRTSSDYAMGWFRQAPGKEREFVSAINWSGISTYYADSVKGRFTISRDNAKNTVHLQMNSLKPEDTAVYYCAAEKLESLRNWHDPLMYDYWGQGTQVTVSE
## Task Pick one: a or b . Which one has the lower reported Mutant ELISA affinity (LogIC50 (oD450nm))? Indicate which entry you chose by stating its label.
## Result a
